- System: leukemia cell lines
- Test Description: Resazurin cell viability assay on leukemia cell lines (72 h growth inhibition, GI50)
- Format: cell-based
- Assay Conditions: Homo sapiens, MV4-11 cells
Measured Endpoint: GI50 (µM)

Structure Smiles | GI50 [µM]
CS(=O)(=O)N[C@H]1CC[C@H](Nc2ncc(Cl)c(-c3cnc4c(Br)cc(C(F)(F)F)cn34)n2)CC1 | 6.11

[a] Cc1cnc(N[C@H]2CC[C@H](N)CC2)nc1-c1cnc2ccc(Nc3cccnc3)cn12
[b] Cc1cnc(NC2CCOCC2)nc1-c1cnc2ccc(Nc3cncnc3)cn12
### Prompt Between a and b , which one shows the larger GI50 value? Kindly state the label of the option you pick.
### Response b

[P] Cc1cnc(N[C@H]2CC[C@H](N)CC2)nc1-c1cnc2ccc(-c3ccc(N4CCOCC4)nc3)cn12
[Q] N[C@H]1CC[C@H](Nc2ncc(Cl)c(-c3cnc4ccc(-c5ccccc5)cn34)n2)CC1
### Prompt Between P and Q , which one shows the larger GI50 value? Kindly state the label of the option you pick.
### Response P

Source listed as patent US11111245B2.
